# TARGET DESC: SARS-CoV-2 3CLPro (Severe acute respiratory syndrome coronavirus 2 (2019-nCoV) (SARS-CoV-2))
# ASSAY PROTOCOL: biochemical
# SETUP CONDITIONS: final DMSO concentration 0.4%; read-out: IC50
pIC50: −log10 of the molar value.
MEASURED ENDPOINT: pIC50

SMILES STR	MEASURED ENDPOINT	RECORDED NUMBER
O=C(O)c1cc(O)c(O)c(OC(=O)c2cc(O)c(O)c(OC(=O)c3cc(O)c(O)c(OC(=O)c4cc(O)c(O)c(OC(=O)c5cc(O)c(O)c(OC(=O)c6ccccc6)c5)c4)c3)c2)c1	pIC50	5.36

====

# TARGET DESC: UniProtKB P14920
# Sequence (P14920 whole entry): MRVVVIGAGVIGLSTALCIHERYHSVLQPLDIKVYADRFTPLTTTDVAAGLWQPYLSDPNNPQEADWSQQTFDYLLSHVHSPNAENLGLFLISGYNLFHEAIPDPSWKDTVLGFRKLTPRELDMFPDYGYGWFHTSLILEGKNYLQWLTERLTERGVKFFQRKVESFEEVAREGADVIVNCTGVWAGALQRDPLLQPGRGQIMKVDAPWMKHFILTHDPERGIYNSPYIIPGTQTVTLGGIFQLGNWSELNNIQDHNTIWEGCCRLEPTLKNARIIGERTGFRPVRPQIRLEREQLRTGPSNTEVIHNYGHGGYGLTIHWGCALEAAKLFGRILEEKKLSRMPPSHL

COMPOUND	TARGET DESC	RESULT UNIT	IC50
O=C(O)c1cc(O)c(O)c(OC(=O)c2cc(O)c(O)c(OC(=O)c3cc(O)c(O)c(OC(=O)c4cc(O)c(O)c(OC(=O)c5cc(O)c(O)c(OC(=O)c6ccc[nH]6)c5)c4)c3)c2)c1 [Compound 25]	UniProtKB P14920	nM	89
O=C(Oc1cc(C(=O)Oc2cc(C(=O)Oc3cc(C(=O)O[C@@H]4OC[C@@H](OC(=O)c5cc(O)c(O)c(OC(=O)c6cc(O)c(O)c(OC(=O)c7cc(O)c(O)c(OC(=O)c8cc(O)c(O)c(O)c8)c7)c6)c5)[C@H](OC(=O)c5cc(O)c(O)c(OC(=O)c6cc(O)c(O)c(OC(=O)c7cc(O)c(O)c(OC(=O)c8cc(O)c(O)c(O)c8)c7)c6)c5)[C@H]4OC(=O)c4cc(O)c(O)c(OC(=O)c5cc(O)c(O)c(OC(=O)c6cc(O)c(O)c(OC(=O)c7cc(O)c(O)c(O)c7)c6)c5)c4)cc(O)c3O)cc(O)c2O)cc(O)c1O)c1cc(O)c(O)c(O)c1 [Compound 128]	UniProtKB P14920	nM	3.3
O=C(Oc1cc(C(=O)O[C@H]2OC[C@@H](OC(=O)c3cc(O)c(O)c(OC(=O)c4cc(O)c(O)c(O)c4)c3)[C@H](OC(=O)c3cc(O)c(O)c(OC(=O)c4cc(O)c(O)c(O)c4)c3)[C@H]2OC(=O)c2cc(O)c(O)c(OC(=O)c3cc(O)c(O)c(O)c3)c2)cc(O)c1O)c1cc(O)c(O)c(O)c1 [Compound 117]	UniProtKB P14920	nM	9
O=C(Oc1cc(OC(=O)c2cc(O)c(O)c(OC(=O)c3cc(O)c(O)c(OC(=O)c4cc(O)c(O)c(OC(=O)c5cc(O)c(O)c(OC(=O)c6cc(O)c(O)c(O)c6)c5)c4)c3)c2)cc(OC(=O)c2cc(CCc3ccc(C(F)(F)F)cc3)n[nH]2)c1)c1cc(O)c(O)c(OC(=O)c2cc(O)c(O)c(OC(=O)c3cc(O)c(O)c(OC(=O)c4cc(O)c(O)c(OC(=O)c5cc(O)c(O)c(O)c5)c4)c3)c2)c1 [Compound 107]	UniProtKB P14920	nM	7
O=C(OCc1cc(CCc2ccc(F)cc2)n[nH]1)c1cc(O)c(O)c(OC(=O)c2cc(O)c(O)c(OC(=O)c3cc(O)c(O)c(OC(=O)c4cc(O)c(O)c(OC(=O)c5cc(O)c(O)c(O)c5)c4)c3)c2)c1 [Compound 92]	UniProtKB P14920	nM	23
